Sourced from PubChem BioAssay AID372

target-entity: Gag-Pol polyprotein (Human immunodeficiency virus type 1 group M subtype B (isolate HXB2))
test-summary: RNase H inhibition, HIV 1 Gag Pol polyprotein, FRET biochemical assay, screening (AID 372)
study-conditions: HIV-1 RT RNase H, FRET RNA/DNA substrate fluorescence; at 10 µM
In all, about 100,000 compounds went through this assay and about 770 (0.77%) were called active. Cut-off read from the data, not from the text of the source: active = inhibition above about 50%; inactive = the rest. For the sample, actives were picked, then their nearest neighbours and some compounds at random.
Classes used: active, inactive

>>> label("O=C(Nc1ccccc1C#Cc1ccccc1)C(c1ccccc1)c1ccccc1")
"inactive"
>>> label("O=C(NCc1cccnc1)c1cnn2c(C(F)(F)F)cc(-c3ccc4c(c3)OCO4)nc12")
"inactive"
>>> label("O=C(CN(c1cccc(Cl)c1)S(=O)(=O)c1ccccc1)N1CCN(Cc2ccccc2)CC1")
"inactive"
>>> label("COC(=O)C1=C(C)NC(C)=C(C(=O)OC)C1c1cn(-c2ccccc2)nc1-c1ccco1")
"inactive"
>>> label("N#C/C(=C\\c1ccc(O)c(O)c1)c1nc(-c2cccc([N+](=O)[O-])c2)cs1")
"active"

* * *

target-entity: Gag-Pol polyprotein (Human immunodeficiency virus type 1 group M subtype B (isolate HXB2)) (UniProt P04585)
test-summary: RNase H inhibition, HIV 1 Gag Pol polyprotein, FRET biochemical assay, screening (AID 372)
study-conditions: HIV-1 RT RNase H, FRET RNA/DNA substrate fluorescence; at 10 µM; stronger effect = higher value
Screen size: about 100,000 compounds; about 770 (0.77%) were called active. The entries come from a sample that favours actives as a whole.
measured-attribute: inhibition (%)

>>> readout_number("Oc1ccc(C=Nc2ccc(N=Cc3ccc(O)cc3)cc2)cc1")
15
>>> readout_number("COc1cccc(Nc2c([N+](=O)[O-])c(=O)n(-c3ccccc3)c3ccccc23)c1")
15
>>> readout_number("COc1ccc(/C(O)=C2/C(=O)C(=O)N(CCCCCC(=O)O)C2c2ccc([N+](=O)[O-])cc2)cc1 (centres undefined)")
6
>>> readout_number("Nc1cccc(-c2cc(C(=O)O)c3ccccc3n2)c1")
0
>>> readout_number("CN(C)c1ccc(/C=C(\\C#N)c2nc(-c3ccc4c(c3)OCO4)cs2)cc1")
16
>>> readout_number("CCOc1ccc(C2=NNC(=O)CC2)cc1")
10
>>> readout_number("O=C(N/N=C\\c1ccc[nH]1)c1cccc2c3c([nH]c12)CCCC3")
24
>>> readout_number("COc1ccc(-c2cccc(=O)o2)cc1")
0
>>> readout_number("O=C(Cn1c(NCCCO)nc2ccccc21)c1ccc(Br)s1")
11
>>> readout_number("O=C(COc1ccccc1Cl)NNC(=O)c1cc2ccccc2cc1O")
6
>>> readout_number("Cc1cc(NC(=O)CSc2nnc3c4ccccc4n(C)c3n2)no1")
4
>>> readout_number("c1ccc(NC2=Nc3cccc4cccc2c34)cc1")
12
>>> readout_number("CCCN1CCC(NCCc2ccc(F)cc2)CC1")
1
>>> readout_number("Oc1ccc(C=Nc2ccc(O)cc2)cc1")
4
>>> readout_number("Nc1ccc(C2=Nc3cccc4cccc(c34)N2)cc1")
56
>>> readout_number("Cc1ccc(C(=O)CSc2nc(N)c(C#N)c(-c3ccc(O)cc3)c2C#N)cc1")
47
>>> readout_number("COc1cccc(C(=O)NNC(=O)C2CCCO2)c1 (centres undefined)")
4
>>> readout_number("CC(=O)Nc1ccc2c(c1)C(=O)OC2(c1ccc(N(C)C)cc1)c1ccc(N(C)C)cc1")
17
>>> readout_number("CCCC1CCC(c2ccc(OCC)cc2)=CC1=O (centres undefined)")
8
>>> readout_number("CCn1c2ccccc2c2cc(C=Nc3ccc(C)c(F)c3)ccc21")
0
>>> readout_number("Cn1ccnc1SCC(=O)n1c2c(c3ccccc31)CCCC2")
0
>>> readout_number("COc1ccc(C2=CC(=O)c3ccccc3C2=O)cc1")
40
>>> readout_number("COC(=O)CSc1nc(N)c(C#N)c(-c2ccc(O)cc2)c1C#N")
2
>>> readout_number("COc1ccc(-c2c(C#N)c(N)nc(SCC(=O)OCc3ccccc3)c2C#N)cc1")
15
